The compounds listed here are annotated with their pIC50.
# SUBJECT OF TEST: human TRPC5 (Homo sapiens, UniProt Q9UL62)
# Construct: expressed in transfected cells; host or cells: HEK 293
# Sequence (Q9UL62 whole entry): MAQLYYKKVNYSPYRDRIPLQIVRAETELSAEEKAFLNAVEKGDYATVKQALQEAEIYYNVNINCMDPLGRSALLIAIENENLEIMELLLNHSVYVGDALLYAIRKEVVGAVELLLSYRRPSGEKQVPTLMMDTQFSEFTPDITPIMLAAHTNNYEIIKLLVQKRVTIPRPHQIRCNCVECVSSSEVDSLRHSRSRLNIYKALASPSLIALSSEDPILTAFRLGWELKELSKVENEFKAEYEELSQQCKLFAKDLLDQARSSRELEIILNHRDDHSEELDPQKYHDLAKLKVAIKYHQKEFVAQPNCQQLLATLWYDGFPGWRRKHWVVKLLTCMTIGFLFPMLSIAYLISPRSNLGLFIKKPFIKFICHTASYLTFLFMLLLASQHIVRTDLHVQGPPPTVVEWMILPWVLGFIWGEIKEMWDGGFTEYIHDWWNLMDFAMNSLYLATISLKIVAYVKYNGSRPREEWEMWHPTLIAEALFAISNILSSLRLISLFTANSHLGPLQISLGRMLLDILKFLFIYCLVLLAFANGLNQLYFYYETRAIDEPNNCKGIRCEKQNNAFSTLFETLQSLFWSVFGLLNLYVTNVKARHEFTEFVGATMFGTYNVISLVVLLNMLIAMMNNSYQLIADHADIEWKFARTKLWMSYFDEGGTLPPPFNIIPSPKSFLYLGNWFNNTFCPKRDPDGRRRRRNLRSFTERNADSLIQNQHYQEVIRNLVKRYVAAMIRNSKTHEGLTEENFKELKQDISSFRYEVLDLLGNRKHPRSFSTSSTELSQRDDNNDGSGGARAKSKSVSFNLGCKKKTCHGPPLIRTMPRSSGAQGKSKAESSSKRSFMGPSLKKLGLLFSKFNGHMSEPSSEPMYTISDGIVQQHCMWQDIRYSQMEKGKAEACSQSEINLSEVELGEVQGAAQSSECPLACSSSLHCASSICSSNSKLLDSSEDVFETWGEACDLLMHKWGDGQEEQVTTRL
# PROTOCOL NOTES: Automated patch clamp assay (QPatch), current block after stimulation with rosiglitazone
# Assay type: cell-based
# MEASUREMENT CONTEXT: HEK293 cells overexpressing TRPC5, whole cell automated patch, 80 mV, 1-substituted 7-azaindoles, read-out: TRPC5 IC50 80 mV
pIC50: −log10 of the molar value.

For orientation, consider the following solved cases.
{"COMPOUND": "Cn1cc(Cn2c(C(C)(C)C)cc3cccnc32)cn1", "SUBJECT OF TEST": "human TRPC5 (Homo sapiens, UniProt Q9UL62)", "pIC50": "< 4.52"}
{"COMPOUND": "CC(C)(C)c1cc2cccnc2n1Cc1ccccc1 [drawing 65]", "SUBJECT OF TEST": "human TRPC5 (Homo sapiens, UniProt Q9UL62)", "pIC50": 5.15}
{"COMPOUND": "Cc1cc2cccnc2n1Cc1ccc(Cl)cc1", "SUBJECT OF TEST": "human TRPC5 (Homo sapiens, UniProt Q9UL62)", "pIC50": "< 4.52"}
{"COMPOUND": "CC(C)(C)c1cc2cccnc2n1Cc1ccc(Cl)cn1", "SUBJECT OF TEST": "human TRPC5 (Homo sapiens, UniProt Q9UL62)", "pIC50": "< 4.52"}
{"COMPOUND": "CC(C)(C)c1cc2cccnc2n1CC1CCNCC1", "SUBJECT OF TEST": "human TRPC5 (Homo sapiens, UniProt Q9UL62)", "pIC50": "< 4.52"}
{"COMPOUND": "CC(C)(C)c1cc2cccnc2n1CC1CCN(S(C)(=O)=O)CC1", "SUBJECT OF TEST": "human TRPC5 (Homo sapiens, UniProt Q9UL62)", "pIC50": "< 4.52"}
{"COMPOUND": "Cc1noc(C)c1Cn1c(C(C)(C)C)cc2cccnc21", "SUBJECT OF TEST": "human TRPC5 (Homo sapiens, UniProt Q9UL62)", "pIC50": "< 4.52"}
{"COMPOUND": "Cc1ncc(Cn2c(C(C)(C)C)cc3cccnc32)cn1", "SUBJECT OF TEST": "human TRPC5 (Homo sapiens, UniProt Q9UL62)", "pIC50": "< 4.52"}

Quick check: pIC50 of CC(C)(C)c1cc2cc(OCCCO)cnc2n1Cc1ccccc1 ?
< 4.52

Would you kindly share the measured pIC50 for CC(C)(O)Cc1cc2cccnc2n1Cc1ccccc1 ?
< 4.52

Value lookup for pIC50; key = CC(C)(O)c1cc2cccnc2n1Cc1ccccc1 [drawing 80]
< 4.52

Look up pIC50: COc1cccc(Cn2c(C(C)(C)C)cc3cccnc32)c1
< 4.52

The values you see were collected from patent US20210115036A1.
